tested on: HCI13 (cells of an ER-positive luminal breast cancer xenograft); assay: cell viability (% of vehicle); higher = less cytotoxic; conditions: 10 µM; 72 h;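 also: PDX cells carrying CMV promoter-driven luciferase, viability read as total photon flux per second by IVIS imaging following D-luciferin, vehicle control 0.1% DMSO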
Counter-ions that a name gives are not always drawn.

| molecule | cell viability |
| --- | --- |
| Nc1cc(C(Cl)=C(Cl)Cl)c(S(N)(=O)=O)cc1S(N)(=O)=O | 194 |
| O=c1sn(-c2cccc3ccccc23)c(=O)n1Cc1ccccc1 | 95.7 |
| CC12CC3CC(C)(C1)CC(N)(C3)C2.Cl [Memantine hydrochloride] | 116 |
| NC(=O)C(CCC(F)(F)F)N(Cc1ccc(-c2ncon2)cc1F)S(=O)(=O)c1ccc(Cl)cc1 (stereo not given) | 102 |
| COc1ccc2c(c1OC)C(=O)OC2C1c2c(cc3c(c2OC)OCO3)CCN1C.Cl (stereo not given) [Noscapine HCl] | 101 |
| O=C1C(=O)c2ccccc2C(O)=C1C1CCC(c2ccc(Cl)cc2)CC1 (stereo not given) | 50 |
| CN1CCN(CCCN2c3ccccc3Sc3ccc(Cl)cc32)CC1 | 128 |
| CN1C(C(=O)Nc2ccccn2)=C(O)c2sc(Cl)cc2S1(=O)=O | 82.4 |
| Cc1c(OCC(F)(F)F)ccnc1CS(=O)c1nc2ccccc2[nH]1 (stereo not given) | 188 |
| CN1C(C(=O)Nc2ccccn2)=C(O)c2ccccc2S1(=O)=O | 103 |
| COC(=O)C1C2CC3c4[nH]c5cc(OC)ccc5c4CCN3CC2CC(OC(=O)c2cc(OC)c(OC)c(OC)c2)C1OC.Cl (stereo not given) [Reserpine hydrochloride] | 124 |
| OCC1OC(Oc2cc(O)cc(C=Cc3ccc(O)cc3)c2)C(O)C(O)C1O (stereo not given) | 99.9 |
| COc1ccc2cc(CCC(C)=O)ccc2c1 | 199 |
| Cc1cnc(C(=O)O)c[n+]1[O-] | 90.4 |
| CC(=O)[N-]S(=O)(=O)c1ccc(N)cc1.[Na+] [Sulfacetamide Sodium] | 96.8 |
| NCC1OC(OC2C(CO)OC(OC3C(O)C(N)CC(N)C3OC3OC(CN)C(O)C(O)C3N)C2O)C(N)C(O)C1O.O=S(=O)(O)O (stereo not given) [Neomycin sulfate] | 79.9 |
| O=C(O)CCNC(=O)c1ccc(/N=N/c2ccc(O)c(C(=O)O)c2)cc1 [Balsalazide] | 120 |
| CC1OC(n2cc(F)c(=O)[nH]c2=O)C(O)C1O (stereo not given) | 104 |
| CN1C2CCC1CC(OC(c1ccccc1)c1ccccc1)C2.CS(=O)(=O)O (stereo not given) [Benztropine mesylate] | 120 |
| CC(C)C1C(=O)NC(CCCN=C(N)N)C(=O)NCC(=O)NC(CC(=O)O)C(=O)NC(Cc2ccccc2)C(=O)N1C (stereo not given) [Cilengitide] | 124 |
| Cl.Cl.NC(=NCCCCCCN=C(N)N=C(N)Nc1ccc(Cl)cc1)N=C(N)Nc1ccc(Cl)cc1 [Chlorhexidine HCl] | 96.4 |
| CCCc1cc(=O)[nH]c(=S)[nH]1 | 143 |
| CN[C@H](CC(C)C)C(=O)N[C@H]1C(=O)N[C@@H](CC(N)=O)C(=O)N[C@H]2C(=O)N[C@H]3C(=O)N[C@H](C(=O)N[C@H](C(=O)O)c4cc(O)cc(O)c4-c4cc3ccc4O)[C@H](O)c3ccc(c(Cl)c3)Oc3cc2cc(c3O[C@@H]2O[C@H](CO)[C@@H](O)[C@H](O)[C@H]2O[C@H]2C[C@](C)(N)[C@H](O)[C@H](C)O2)Oc2ccc(cc2Cl)[C@H]1O [Vancomycin hydrochloride] | 195 |
| Cc1c(F)cc(C(=O)NC2CC2)cc1-c1ccc(C(=O)NCC(C)(C)C)cn1 | 71 |
| Clc1ccc(COC(Cn2ccnc2)c2ccc(Cl)cc2Cl)c(Cl)c1.O=[N+]([O-])O (stereo not given) [Miconazole Nitrate] | 56.9 |
| CCOC(=O)CC(=O)N1CCSC1COc1ccccc1OC (stereo not given) | 115 |
| COC(=O)Nc1nc2ccc(C(=O)c3ccc(F)cc3)cc2[nH]1 | 102 |
| Nc1nc(=O)c2ncn(CCC(CO)CO)c2[nH]1 | 84.4 |
| Cc1ncc([N+](=O)[O-])n1CC(C)O (stereo not given) | 103 |
| CC1=CC(=O)c2ccccc2C1=O | 57.3 |

###

test system: HCI09 (cells of a triple-negative luminal androgen receptor type breast cancer xenograft); test: cell viability (% of vehicle); higher = less cytotoxic; details: 10 µM; 72 h
Listed here are compounds together with their documented cell viability.
resultType: cell viability

| compound | resultType | recordedValue |
| --- | --- | --- |
| CCC1OC(=O)C(C)C(OC2CC(C)(OC)C(O)C(C)O2)C(C)C(OC2OC(C)CC(N(C)C)C2O)C(C)(O)CC(C)C2NC(COCCOC)OC(C2C)C1(C)O (stereo not given) [Dirithromycin] | cell viability | 89.5 |
| COc1ccc(C=Cc2cc(OC)c(OC)c(OC)c2)cc1OP(=O)([O-])[O-].[Na+].[Na+] [Fosbretabulin (Combretastatin A4 Phosphate (CA4P)) Disodium] | cell viability | 110 |
| CCCCN1CCCCC1C(=O)Nc1c(C)cccc1C.Cl (stereo not given) [Levobupivacaine HCl] | cell viability | 117 |
| CCOc1cc(CC(=O)NC(CC(C)C)c2ccccc2N2CCCCC2)ccc1C(=O)O (stereo not given) [Repaglinide] | cell viability | 117 |
| CCCCOc1ccc(CC(=O)NO)cc1 [Bufexamac] | cell viability | 140 |
| COc1cc(Nc2nc3ccccc3nc2NS(=O)(=O)c2ccc(NC(=O)c3ccc(C)c(OC)c3)cc2)cc(OC)c1 | cell viability | 49.7 |
| CC(=O)Nc1ccc(O)cc1 [Acetaminophen] | cell viability | 98.4 |
| CS(=O)(=O)O.CS(=O)(=O)O.N=C(N)c1ccc2cc(OC(=O)c3ccc(N=C(N)N)cc3)ccc2c1 [Nafamostat Mesylate(FUT-175)] | cell viability | 43.9 |
| NC(=O)N1c2ccccc2CC(=O)c2ccccc21 [Oxcarbazepine] | cell viability | 107 |
| CCCC(CCC)C(=O)O.CCCC(CCC)C(=O)[O-].[Na+] [Divalproex Sodium] | cell viability | 96.4 |
| CO[C@H]1O[C@@H]2O[C@@]3(C)CC[C@H]4[C@H](C)CC[C@@H]([C@H]1C)[C@@]24OO3 [Artemether (SM-224)] | cell viability | 79.3 |
| O=c1ccc2ccc(OCCCCN3CCN(c4cccc5sccc45)CC3)cc2[nH]1 [Brexpiprazole] | cell viability | 85.7 |
| CN1CCC(=C2c3ccccc3CCc3sccc32)CC1.O=C(O)CC(O)C(=O)O [Pizotifen Malate] | cell viability | 74.7 |
| CCC(C)C(=O)OC1CC(O)C=C2C=CC(C)C(CCC(O)CC(O)CC(=O)[O-])C21.[Na+] (stereo not given) [Pravastatin sodium] | cell viability | 126 |
| CCCNC(C)C(=O)Nc1c(C)csc1C(=O)OC.Cl (stereo not given) [Articaine HCl] | cell viability | 116 |
| Cc1cn(-c2cc(NC(=O)c3ccc(C)c(Nc4nccc(-c5cccnc5)n4)c3)cc(C(F)(F)F)c2)cn1 [Nilotinib(AMN-107)] | cell viability | 90.1 |
| CNC(=O)c1cc(Oc2ccc(NC(=O)Nc3ccc(Cl)c(C(F)(F)F)c3)cc2)ccn1.Cc1ccc(S(=O)(=O)O)cc1 [Sorafenib Tosylate] | cell viability | 14.6 |
| CCN(CC)CCOC(=O)C1(C2CCCCC2)CCCCC1.Cl [Dicyclomine HCl] | cell viability | 102 |
| CCCCOc1cc(C(=O)OCCN(CC)CC)ccc1N.Cl [Oxybuprocaine HCl] | cell viability | 83.9 |
| NCC1CCC(C(=O)O)CC1 (stereo not given) [Tranexamic Acid] | cell viability | 94.6 |
| O=C1OC(C(O)CO)C(O)=C1O (stereo not given) [Vitamin C] | cell viability | 93.6 |
| CC(C)n1c(C=CC(O)CC(O)CC(=O)[O-])c(-c2ccc(F)cc2)c2ccccc21.[Na+] (stereo not given) [Fluvastatin Sodium] | cell viability | 61.2 |
| Clc1ccc(C(Cn2ccnc2)OCc2ccc(Sc3ccccc3)cc2)c(Cl)c1.O=[N+]([O-])O (stereo not given) [Fenticonazole Nitrate] | cell viability | 19.2 |
| CN(C)CC(c1ccc(O)cc1)C1(O)CCCCC1 (stereo not given) [Desvenlafaxine] | cell viability | 92.5 |
| COC(=O)C1=COC(OC2OC(CO)C(O)C(O)C2O)C2C(CO)=CCC12 (stereo not given) [Geniposide] | cell viability | 104 |
| C[N+](C)(C)CC(O)CC(=O)O.[Cl-] (racemic) [DL-Carnitine HCl] | cell viability | 120 |
| CCCCCCCCOc1ccccc1C(=O)Nc1ccc(C(=O)OCC[N+](C)(CC)CC)cc1.[Br-] [Otilonium Bromide] | cell viability | 37.4 |
| CO[C@H]1C[C@@H]2CC[C@@H](C)[C@@](O)(O2)C(=O)C(=O)N2CCCC[C@H]2C(=O)O[C@H]([C@@H](C)C[C@@H]2CC[C@@H](OCCO)[C@H](OC)C2)CC(=O)[C@H](C)/C=C(\C)[C@@H](O)[C@@H](OC)C(=O)[C@H](C)C[C@H](C)/C=C/C=C/C=C/1C [Everolimus (RAD001)] | cell viability | 27.5 |
| O=C(O)c1ccccc1O [Salicylic acid] | cell viability | 138 |
| CCOC(=O)c1c(C)n(C)c2ccc(O)cc12 [Mecarbinate] | cell viability | 111 |
